// data source = the Kinase Knowledgebase extract (Sharma et al. 2016)

Molecular target: CDK2 (human) (UniProt P24941)
Test: Cell-Based Assay
Conditions: hs-27
pIC50: −log10 of the molar value.
endpoint label: pIC50

I = Cc1[nH]c(C#N)c(C)c1-c1ccnc(Nc2ccc(F)cc2)n1
II = Cc1[nH]c(C#N)c(C)c1-c1ccnc(Nc2ccc(I)cc2)n1
(Q) Select one. Lower pIC50: I or II State the label of the item chosen.
(A) II

----------
Target: CDK2 (human) (UniProt P24941)
Experiment: Cell-Based Assay
Conditions: a549
endpoint label: IC50 (µM)

Cc1[nH]c(CN2CCN(C)CC2)c(C)c1-c1ccnc(Nc2ccc(F)cc2)n1; 13.8

I = Cc1[nH]c(C#N)c(C)c1-c1ccnc(Nc2ccc(I)cc2)n1
II = Cc1c[nH]c(C)c1-c1ccnc(Nc2ccc(C(F)(F)F)cc2)n1
III = Cc1[nH]c(Br)c(C)c1-c1ccnc(Nc2cccc([N+](=O)[O-])c2)n1
(Q) List items by IC50 in falling order. Field: ranking. Enter the labels in the order requested.
(A) II, III, I
